biological target: UniProtKB P20272
Sequence (P20272 whole entry): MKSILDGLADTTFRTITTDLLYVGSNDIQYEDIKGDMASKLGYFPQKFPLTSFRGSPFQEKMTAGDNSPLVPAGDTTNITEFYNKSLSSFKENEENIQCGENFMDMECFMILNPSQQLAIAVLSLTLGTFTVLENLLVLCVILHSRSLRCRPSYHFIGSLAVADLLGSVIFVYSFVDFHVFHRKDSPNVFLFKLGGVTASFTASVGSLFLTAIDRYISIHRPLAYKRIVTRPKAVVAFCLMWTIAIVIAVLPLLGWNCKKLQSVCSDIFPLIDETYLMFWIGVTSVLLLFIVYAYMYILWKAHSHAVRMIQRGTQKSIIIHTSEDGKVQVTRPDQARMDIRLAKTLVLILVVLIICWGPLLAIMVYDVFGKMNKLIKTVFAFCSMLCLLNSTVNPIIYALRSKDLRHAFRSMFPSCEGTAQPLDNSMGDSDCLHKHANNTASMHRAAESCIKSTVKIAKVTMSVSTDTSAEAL
measurement.type: pKi
For clarity, pKi is expressed as the negative log10 of concentration in mol/L.

Notebook: `CCCCC/C=C\C/C=C\C/C=C\C/C=C\CCCCOC(CO)CO` , pKi read as 7.21

All values here come from patent US6531636B1.
